The reported numbers originate from patent US5916873A.

Test system: St. pneumo P1
assay.protocol: standard broth micro-dilution MIC
Format: cell-based
test.settings: Table 2C; strain P1

molecule	value.unit	MIC St. pneumo P1
CC(=O)NC1C(OC2c3ccc(c(Cl)c3)Oc3cc4cc(c3OC3OC(CO)C(O)C(O)C3NCc3ccc(Oc5ccccc5)cc3)Oc3ccc(cc3Cl)CC3NC(=O)C(NCc5ccc(Oc6ccccc6)cc5)c5ccc(O)c(c5)Oc5cc(O)cc(c5)C(NC3=O)C(=O)NC4C(=O)NC3C(=O)NC2C(=O)NC(C(=O)O)c2cc(O)cc(OC4OC(CO)C(O)C(O)C4O)c2-c2cc3ccc2O)OC(CO)C(O)C1O (centres unmarked) [Example 10]	µg/mL	0.125
CC(=O)NC1C(OC2c3ccc(c(Cl)c3)Oc3cc4cc(c3OC3OC(CO)C(O)C(O)C3NCc3ccc(C=Cc5ccccc5)cc3)Oc3ccc(cc3Cl)CC3NC(=O)C(NCc5ccc(C=Cc6ccccc6)cc5)c5ccc(O)c(c5)Oc5cc(O)cc(c5)C(NC3=O)C(=O)NC4C(=O)NC3C(=O)NC2C(=O)NC(C(=O)O)c2cc(O)cc(OC4OC(CO)C(O)C(O)C4O)c2-c2cc3ccc2O)OC(CO)C(O)C1O (centres unmarked) [Example 8]	µg/mL	0.25

---

Reported MIC St. pneumo P1 values for a set of compounds
Tested on: St. pneumo P1
assay.protocol: standard broth micro-dilution MIC
Format: cell-based
test.settings: Table 2C; strain P1

compound	MIC St. pneumo P1
CC(=O)NC1C(OC2c3ccc(c(Cl)c3)Oc3cc4cc(c3OC3OC(CO)C(O)C(O)C3N)Oc3ccc(cc3Cl)CC3NC(=O)C(NCc5ccc(-c6ccccc6)cc5)c5ccc(O)c(c5)Oc5cc(O)cc(c5)C(NC3=O)C(=O)NC4C(=O)NC3C(=O)NC2C(=O)NC(C(=O)O)c2cc(O)cc(OC4OC(CO)C(O)C(O)C4O)c2-c2cc3ccc2O)OC(CO)C(O)C1O (centres unmarked) [Example 2]	≤ .03 µg/mL
CC(=O)NC1C(OC2c3ccc(c(Cl)c3)Oc3cc4cc(c3OC3OC(CO)C(O)C(O)C3NCc3ccc(-c5ccccc5)cc3)Oc3ccc(cc3Cl)CC3NC(=O)C(NCc5ccc(-c6ccccc6)cc5)c5ccc(O)c(c5)Oc5cc(O)cc(c5)C(NC3=O)C(=O)NC4C(=O)NC3C(=O)NC2C(=O)NC(C(=O)O)c2cc(O)cc(OC4OC(CO)C(O)C(O)C4O)c2-c2cc3ccc2O)OC(CO)C(O)C1O.O=C(O)C(F)(F)F (centres unmarked) [Example 1]	≤ .06 µg/mL

---

Reported MIC S. aureus 489 values for a set of compounds
Tested on: S. aureus 489
assay.protocol: standard broth micro-dilution MIC
Format: cell-based
test.settings: Table 2A; strain 489

compound	MIC S. aureus 489 / µg/mL
CC(=O)NC1C(OC2c3ccc(c(Cl)c3)Oc3cc4cc(c3OC3OC(CO)C(O)C(O)C3NCc3ccc(Oc5ccccc5)cc3)Oc3ccc(cc3Cl)CC3NC(=O)C(NCc5ccc(Oc6ccccc6)cc5)c5ccc(O)c(c5)Oc5cc(O)cc(c5)C(NC3=O)C(=O)NC4C(=O)NC3C(=O)NC2C(=O)NC(C(=O)O)c2cc(O)cc(OC4OC(CO)C(O)C(O)C4O)c2-c2cc3ccc2O)OC(CO)C(O)C1O (stereo not drawn)	0.5
CC(=O)NC1C(OC2c3ccc(c(Cl)c3)Oc3cc4cc(c3OC3OC(CO)C(O)C(O)C3NCc3ccc(OC(F)(F)F)cc3)Oc3ccc(cc3Cl)CC3NC(=O)C(NCc5ccc(OC(F)(F)F)cc5)c5ccc(O)c(c5)Oc5cc(O)cc(c5)C(NC3=O)C(=O)NC4C(=O)NC3C(=O)NC2C(=O)NC(C(=O)O)c2cc(O)cc(OC4OC(CO)C(O)C(O)C4O)c2-c2cc3ccc2O)OC(CO)C(O)C1O (stereo not drawn)	0.5
CC(=O)NC1C(OC2c3ccc(c(Cl)c3)Oc3cc4cc(c3OC3OC(CO)C(O)C(O)C3NCc3ccc(C=Cc5ccccc5)cc3)Oc3ccc(cc3Cl)CC3NC(=O)C(NCc5ccc(C=Cc6ccccc6)cc5)c5ccc(O)c(c5)Oc5cc(O)cc(c5)C(NC3=O)C(=O)NC4C(=O)NC3C(=O)NC2C(=O)NC(C(=O)O)c2cc(O)cc(OC4OC(CO)C(O)C(O)C4O)c2-c2cc3ccc2O)OC(CO)C(O)C1O (stereo not drawn)	0.25

---

Reported MIC H. influ RD values for a set of molecules
Tested on: H. influ RD
assay.protocol: standard broth micro-dilution MIC
Type: cell-based
test.settings: Table 2C; strain RD

molecule	MIC H. influ RD
CC(=O)NC1C(OC2c3ccc(c(Cl)c3)Oc3cc4cc(c3OC3OC(CO)C(O)C(O)C3N)Oc3ccc(cc3Cl)CC3NC(=O)C(NCc5ccc(-c6ccccc6)cc5)c5ccc(O)c(c5)Oc5cc(O)cc(c5)C(NC3=O)C(=O)NC4C(=O)NC3C(=O)NC2C(=O)NC(C(=O)O)c2cc(O)cc(OC4OC(CO)C(O)C(O)C4O)c2-c2cc3ccc2O)OC(CO)C(O)C1O (stereo not shown)	16 µg/mL
CCCCc1ccc(CNC2C(=O)NC3Cc4ccc(c(Cl)c4)Oc4cc5cc(c4OC4OC(CO)C(O)C(O)C4NCc4ccc(CCCC)cc4)Oc4ccc(cc4Cl)C(OC4OC(CO)C(O)C(O)C4NC(C)=O)C4NC(=O)C(NC(=O)C5NC(=O)C(NC3=O)c3cc(O)cc(c3)Oc3cc2ccc3O)c2ccc(O)c(c2)-c2c(OC3OC(CO)C(O)C(O)C3O)cc(O)cc2C(C(=O)O)NC4=O)cc1 (stereo not shown)	64 µg/mL
CC(=O)NC1C(OC2c3ccc(c(Cl)c3)Oc3cc4cc(c3OC3OC(CO)C(O)C(O)C3NCc3ccc(-c5ccccc5)cc3)Oc3ccc(cc3Cl)CC3NC(=O)C(NCc5ccc(-c6ccccc6)cc5)c5ccc(O)c(c5)Oc5cc(O)cc(c5)C(NC3=O)C(=O)NC4C(=O)NC3C(=O)NC2C(=O)NC(C(=O)O)c2cc(O)cc(OC4OC(CO)C(O)C(O)C4O)c2-c2cc3ccc2O)OC(CO)C(O)C1O.O=C(O)C(F)(F)F (stereo not shown)	64 µg/mL
CC(=O)NC1C(OC2c3ccc(c(Cl)c3)Oc3cc4cc(c3OC3OC(CO)C(O)C(O)C3NCc3ccc5ccccc5c3)Oc3ccc(cc3Cl)CC3NC(=O)C(NCc5ccc6ccccc6c5)c5ccc(O)c(c5)Oc5cc(O)cc(c5)C(NC3=O)C(=O)NC4C(=O)NC3C(=O)NC2C(=O)NC(C(=O)O)c2cc(O)cc(OC4OC(CO)C(O)C(O)C4O)c2-c2cc3ccc2O)OC(CO)C(O)C1O (stereo not shown)	16 µg/mL

---

Reported MIC S. aureus 491 values for a set of molecules
Test system: S. aureus 491
assay.protocol: standard broth micro-dilution MIC
Type: cell-based
test.settings: Table 2A; strain 491
measure: MIC S. aureus 491 (µg/mL)

molecule	measure	result
CCCCc1ccc(CNC2C(=O)NC3Cc4ccc(c(Cl)c4)Oc4cc5cc(c4OC4OC(CO)C(O)C(O)C4NCc4ccc(CCCC)cc4)Oc4ccc(cc4Cl)C(OC4OC(CO)C(O)C(O)C4NC(C)=O)C4NC(=O)C(NC(=O)C5NC(=O)C(NC3=O)c3cc(O)cc(c3)Oc3cc2ccc3O)c2ccc(O)c(c2)-c2c(OC3OC(CO)C(O)C(O)C3O)cc(O)cc2C(C(=O)O)NC4=O)cc1 (stereo not drawn) [Example 5]	MIC S. aureus 491	0.25
CC(=O)NC1C(OC2c3ccc(c(Cl)c3)Oc3cc4cc(c3OC3OC(CO)C(O)C(O)C3NCc3cccc(Oc5ccccc5)c3)Oc3ccc(cc3Cl)CC3NC(=O)C(NCc5cccc(Oc6ccccc6)c5)c5ccc(O)c(c5)Oc5cc(O)cc(c5)C(NC3=O)C(=O)NC4C(=O)NC3C(=O)NC2C(=O)NC(C(=O)O)c2cc(O)cc(OC4OC(CO)C(O)C(O)C4O)c2-c2cc3ccc2O)OC(CO)C(O)C1O (stereo not drawn) [Example 11]	MIC S. aureus 491	0.25

---

Test system: St. pneumo P1
assay.protocol: standard broth micro-dilution MIC
Format: cell-based
test.settings: Table 2C; strain P1
Reported MIC St. pneumo P1 values for a set of compounds

compound	assay.target	MIC St. pneumo P1
CCCCc1ccc(CNC2C(=O)NC3Cc4ccc(c(Cl)c4)Oc4cc5cc(c4OC4OC(CO)C(O)C(O)C4NCc4ccc(CCCC)cc4)Oc4ccc(cc4Cl)C(OC4OC(CO)C(O)C(O)C4NC(C)=O)C4NC(=O)C(NC(=O)C5NC(=O)C(NC3=O)c3cc(O)cc(c3)Oc3cc2ccc3O)c2ccc(O)c(c2)-c2c(OC3OC(CO)C(O)C(O)C3O)cc(O)cc2C(C(=O)O)NC4=O)cc1 (stereo not drawn)	St. pneumo P1	≤ .06 µg/mL
CC(=O)NC1C(OC2c3ccc(c(Cl)c3)Oc3cc4cc(c3OC3OC(CO)C(O)C(O)C3NCc3cccc(Oc5ccccc5)c3)Oc3ccc(cc3Cl)CC3NC(=O)C(NCc5cccc(Oc6ccccc6)c5)c5ccc(O)c(c5)Oc5cc(O)cc(c5)C(NC3=O)C(=O)NC4C(=O)NC3C(=O)NC2C(=O)NC(C(=O)O)c2cc(O)cc(OC4OC(CO)C(O)C(O)C4O)c2-c2cc3ccc2O)OC(CO)C(O)C1O (stereo not drawn)	St. pneumo P1	≤ .06 µg/mL
CC(=O)NC1C(OC2c3ccc(c(Cl)c3)Oc3cc4cc(c3OC3OC(CO)C(O)C(O)C3NCc3ccc(OC(F)(F)F)cc3)Oc3ccc(cc3Cl)CC3NC(=O)C(N)c5ccc(O)c(c5)Oc5cc(O)cc(c5)C(NC3=O)C(=O)NC4C(=O)NC3C(=O)NC2C(=O)NC(C(=O)O)c2cc(O)cc(OC4OC(CO)C(O)C(O)C4O)c2-c2cc3ccc2O)OC(CO)C(O)C1O (stereo not drawn)	St. pneumo P1	1 µg/mL
